Reference source: patent US20240294635A1

Recorded measurements of rate of phagocytosis, antibody 10 µg/mL, one per entry
biological target: CD47 on HL60 cells (UniProt Q08722 19-323, limits assumed); assay: cell-based or functional assay
property_label: rate of phagocytosis, antibody 10 µg/mL (%)

{"binder": "hz3F10-2.2 (antibody, human IgG4 S228P, kappa, V domains shown, humanized 3F10, full-length heavy and light chains) VH: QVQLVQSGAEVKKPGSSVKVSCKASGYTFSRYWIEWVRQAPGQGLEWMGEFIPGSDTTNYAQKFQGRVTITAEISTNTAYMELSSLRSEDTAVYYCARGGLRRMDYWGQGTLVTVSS VL: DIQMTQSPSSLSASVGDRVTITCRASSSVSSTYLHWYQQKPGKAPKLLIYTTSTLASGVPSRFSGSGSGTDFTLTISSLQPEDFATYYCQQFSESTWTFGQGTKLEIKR", "reported": 34.7}
{"binder": "hz3F10-6.1 (antibody, human IgG4 S228P, kappa, V domains shown, humanized 3F10, full-length heavy and light chains) VH: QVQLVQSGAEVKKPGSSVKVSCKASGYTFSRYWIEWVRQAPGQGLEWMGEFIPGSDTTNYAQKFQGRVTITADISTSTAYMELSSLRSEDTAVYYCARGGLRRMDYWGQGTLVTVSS VL: DIQMTQSPSSLSASVGDRVTITCRASSSVSSTYLHWYQQKPGKAPKLWIYTTSTLASGVPSRFSGSGSGTSYTLTISSLQPEDFATYYCQQFSESTWTFGQGTKLEIKR", "reported": 60.9}
{"binder": "hz3F10-6.2 (antibody, human IgG4 S228P, kappa, V domains shown, humanized 3F10, full-length heavy and light chains) VH: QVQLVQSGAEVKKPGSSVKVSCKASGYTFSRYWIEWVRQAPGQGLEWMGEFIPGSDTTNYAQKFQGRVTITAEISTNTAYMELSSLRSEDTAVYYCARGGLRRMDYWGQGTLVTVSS VL: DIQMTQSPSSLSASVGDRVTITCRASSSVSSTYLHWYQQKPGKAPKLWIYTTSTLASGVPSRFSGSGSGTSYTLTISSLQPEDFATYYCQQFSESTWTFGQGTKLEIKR", "reported": 44.2}
{"binder": "hz14A9-2.4 (antibody, human IgG4 S228P, kappa, V domains shown, humanized 14A9, full-length heavy and light chains) VH: QVQLVQSGAEVKKPGASVKVSCKVSGFNIEDDYIEWVRQAPGQGLEWMGRIDPANDKTKYAQKFQGRVTMTGDTSTNTVYMELSSLRSEDTAVYYCTRPGLRRYYSMDYWGQGTLVTVSS VL: DIQMTQSPSSLSASVGDRVTITCKASENVVSYVSWYQQKPGKAPKLLIYGASNRYTGVPSRFIGSGSSTDFTLTISSLQPEDFATYYCGQSYSYPLTFGQGTKLEIKR", "reported": 81.7}
{"binder": "hz3F10-5.2 (antibody, human IgG4 S228P, kappa, V domains shown, humanized 3F10, full-length heavy and light chains) VH: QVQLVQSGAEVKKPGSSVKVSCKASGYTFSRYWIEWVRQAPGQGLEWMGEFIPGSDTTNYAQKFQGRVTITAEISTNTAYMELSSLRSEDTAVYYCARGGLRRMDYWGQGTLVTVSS VL: DIQMTQSPSSLSASVGDRVTITCRASSSVSSTYLHWYQQKPGKAPKLWIYTTSTLASGVPSRFSGSGSGTSYTLTISSLQPEDFATYYCQQFSDSTWTFGQGTKLEIKR", "reported": 29.6}
{"binder": "hz3F10-4.1 (antibody, human IgG4 S228P, kappa, V domains shown, humanized 3F10, full-length heavy and light chains) VH: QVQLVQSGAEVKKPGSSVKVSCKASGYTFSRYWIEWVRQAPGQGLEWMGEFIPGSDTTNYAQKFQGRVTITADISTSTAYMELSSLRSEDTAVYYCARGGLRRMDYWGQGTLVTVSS VL: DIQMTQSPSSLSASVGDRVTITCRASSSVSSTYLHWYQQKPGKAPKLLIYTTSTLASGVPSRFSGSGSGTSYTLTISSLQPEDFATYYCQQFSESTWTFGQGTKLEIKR", "reported": 58.3}
{"binder": "hz3F10-1.2 (antibody, human IgG4 S228P, kappa, V domains shown, humanized 3F10, full-length heavy and light chains) VH: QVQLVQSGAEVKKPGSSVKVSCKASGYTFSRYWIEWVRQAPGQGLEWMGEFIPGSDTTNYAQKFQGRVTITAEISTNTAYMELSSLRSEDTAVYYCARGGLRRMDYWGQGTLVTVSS VL: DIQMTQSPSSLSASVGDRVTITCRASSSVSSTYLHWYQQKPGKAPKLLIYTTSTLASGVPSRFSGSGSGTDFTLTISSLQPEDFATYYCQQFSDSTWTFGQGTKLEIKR", "reported": 38.9}
{"binder": "hz3F10-3.1 (antibody, human IgG4 S228P, kappa, V domains shown, humanized 3F10, full-length heavy and light chains) VH: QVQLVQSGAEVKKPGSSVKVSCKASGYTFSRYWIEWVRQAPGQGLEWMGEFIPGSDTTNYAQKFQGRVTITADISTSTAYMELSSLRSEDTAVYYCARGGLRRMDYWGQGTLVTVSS VL: DIQMTQSPSSLSASVGDRVTITCRASSSVSSTYLHWYQQKPGKAPKLLIYTTSTLASGVPSRFSGSGSGTSYTLTISSLQPEDFATYYCQQFSDSTWTFGQGTKLEIKR", "reported": 58.7}
{"binder": "hz3F10-3.2 (antibody, human IgG4 S228P, kappa, V domains shown, humanized 3F10, full-length heavy and light chains) VH: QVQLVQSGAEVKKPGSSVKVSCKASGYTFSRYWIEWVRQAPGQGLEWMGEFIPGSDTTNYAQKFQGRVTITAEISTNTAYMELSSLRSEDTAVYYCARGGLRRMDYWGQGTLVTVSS VL: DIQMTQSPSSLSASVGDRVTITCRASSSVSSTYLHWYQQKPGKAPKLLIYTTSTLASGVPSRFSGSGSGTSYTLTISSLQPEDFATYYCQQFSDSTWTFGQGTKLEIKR", "reported": 37.1}
{"binder": "hz3F10-1.1 (antibody, human IgG4 S228P, kappa, V domains shown, humanized 3F10, full-length heavy and light chains) VH: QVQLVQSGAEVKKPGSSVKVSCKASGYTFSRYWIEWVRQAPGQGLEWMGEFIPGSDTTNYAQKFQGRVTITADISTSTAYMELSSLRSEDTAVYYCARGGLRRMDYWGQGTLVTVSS VL: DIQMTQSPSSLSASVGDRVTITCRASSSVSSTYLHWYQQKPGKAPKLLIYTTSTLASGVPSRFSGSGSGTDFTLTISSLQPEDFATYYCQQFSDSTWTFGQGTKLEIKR", "reported": 43.1}
